# Target system: Glutamate receptor ionotropic, kainate
# Protocol text: Tested for the ability to displace [3H]kainate (5 nM) binding from Ionotropic glutamate receptor kainate in rat forebrain membranes
Endpoint: IC50

[
  {
    "Smiles str": "O=C(O)[C@@H]1C[C@@H](c2nnn[nH]2)CN1",
    "Target system": "Glutamate receptor ionotropic, kainate",
    "IC50": "61 µM"
  }
]

Glutamate receptor ionotropic, kainate / IC50 / `O=C(O)[C@H]1CN[C@H](C(=O)O)C1` : value?
> 100 µM

Again, but for `O=C(O)[C@H]1C[C@H](c2nnn[nH]2)CN1`
> 100 µM
